- protocol: in vitro
- condition summary: human, Caco-2, Caco-2 (cm/sec)
*1 amine or outer side, *2 acyl side, *3 side chain or, on linkers, in order; H or OH if unused. Where a SMILES comes first, the peptide text is derived from it. Bridges are numbered along the chain shown (N, C = ends). [ ]: non-standard residue; d: D form. The star is where a group is joined. NMePhe(3-Cl) = CN[C@@H](Cc1cccc(Cl)c1)C(=O)O; Tyr(3-OMe) = COc1cc(C[C@H](N)C(=O)O)ccc1O; NMehPhe = CN[C@@H](CCc1ccccc1)C(=O)O; hhPhe = N[C@@H](CCCc1ccccc1)C(=O)O; NMeF = CN[C@@H](Cc1ccccc1)C(=O)O; NMeGABA = CN(CCCC(=O)[*:2])[*:1]; Butyl(3-Me,3-OH) = CC(C)(O)CC*; NMeD = CN[C@@H](CC(=O)O)C(=O)O; NMeL = CN[C@@H](CC(C)C)C(=O)O; Propyl(2R-OH) = C[C@@H](O)C*; NMeV = CN[C@H](C(=O)O)C(C)C; NMeAbu = CC[C@H](NC)C(=O)O; NMeA = CN[C@@H](C)C(=O)O; Piperidide = C1CCN(*)CC1; CH2CMe2OH = CC(C)(O)C*; NBuGly = CCCCNCC(=O)O; Isopentyl = CC(C)CC*; NPrGly = CCCNCC(=O)O; Propyl(3-OH) = OCCC*; Ethyl(2-OH) = OCC*; X3 = C[C@H](O)C*; Sar = CNCC(=O)O; tBu = CC(C)(C)*
Below: a set of entries, each annotated with reported Papp.

Sample records with Papp:
>  <compound>
CCCCN1CC(=O)N(C)[C@@H](Cc2ccccc2)C(=O)N(C)[C@@H](CC(C)C)C(=O)N[C@@H](CC(C)C)C(=O)N(C)[C@@H](CC(C)C)C(=O)N[C@H](C(=O)N2CCCCC2)CC(=O)N(C)CC(=O)N(C)[C@@H](CC(C)C)C(=O)N[C@@H](Cc2ccc(O)c(OC)c2)C(=O)N(C)[C@@H](CC)C(=O)N[C@@H]([C@@H](C)O)C1=O [Compound E07] ([Sar][NMeL][Tyr(3-OMe)][NMeAbu]T[NBuGly][NMeF][NMeL]L[NMeL]D-Piperidide; lactam N-11)

>  <Papp>
1.1 ×10⁻⁶ cm/s

$$$$
>  <compound>
CCCN1CC(=O)N(C)[C@@H](Cc2ccccc2)C(=O)N(C)[C@@H](CC(C)C)C(=O)N[C@@H](COCCC(C)C)C(=O)N(C)[C@@H](CC(C)C)C(=O)N[C@H](C(=O)N2CCCCC2)CC(=O)N(C)CC(=O)N(C)[C@@H](Cc2cccc(Cl)c2)C(=O)N[C@@H](COC[C@H](C)O)C(=O)N(C)[C@@H](CC(C)C)C(=O)N[C@@H]([C@@H](C)O)C1=O [AP67] ([Sar][NMePhe(3-Cl)]S(X3)[NMeL]T[NPrGly][NMeF][NMeL]S(Isopentyl)[NMeL]D-Piperidide; lactam N-11)

>  <Papp>
0.71 ×10⁻⁶ cm/s

$$$$
>  <compound>
CC(C)C[C@@H]1NC(=O)[C@H](Cc2cccc(Cl)c2)N(C)C(=O)[C@H](Cc2ccccc2)N(C)C(=O)[C@H](COCCCO)NC(=O)[C@H](CC(C)C)N(C)C(=O)CCCN(C)C(=O)C[C@@H](C(=O)N2CCCCC2)NC(=O)[C@H](CC(C)C)N(C)C(=O)[C@H](CC(C)C)N(C)C(=O)[C@H]([C@@H](C)O)NC(=O)[C@H](CC(C)C)N(C)C1=O [AP91] ([NMeGABA][NMeL]S(Propyl(3-OH))[NMeF][NMePhe(3-Cl)]L[NMeL]T[NMeL][NMeL]D-Piperidide; lactam N-11)

>  <Papp>
0.14 ×10⁻⁶ cm/s

$$$$
>  <compound>
CC(C)C[C@@H]1NC(=O)[C@H](C(C)C)N(C)C(=O)C[C@@H](C(=O)N2CCCCC2)NC(=O)[C@H](CC(C)C)N(C)C(=O)CN(C)C(=O)[C@H]([C@@H](C)O)NC(=O)[C@H](CC(C)C)N(C)C(=O)[C@H](CCc2ccccc2)N(C)C(=O)[C@H](COCCO)NC(=O)[C@H](Cc2ccccc2)N(C)C(=O)[C@H](CC(C)C)N(C)C1=O [Compound A06] ([NMeV]L[NMeL][NMeF]S(Ethyl(2-OH))[NMehPhe][NMeL]T[Sar][NMeL]D-Piperidide; lactam N-11)

>  <Papp>
0.53 ×10⁻⁶ cm/s

$$$$
>  <compound>
CC(C)C[C@@H]1NC(=O)[C@H](Cc2ccccc2)N(C)C(=O)[C@H](C)NC(=O)C[C@@H](C(=O)N2CCCCC2)N(C)C(=O)[C@H](Cc2ccccc2)N(C)C(=O)[C@H](Cc2ccccc2)N(C)C(=O)[C@H](COC(C)(C)C)NC(=O)[C@H](CC(C)C)N(C)C(=O)CN(C)C(=O)[C@H]([C@@H](C)O)NC(=O)[C@H](CC(C)C)N(C)C1=O [pd209] (A[NMeF]L[NMeL]T[Sar][NMeL]S(tBu)[NMeF][NMeF][NMeD]-Piperidide; lactam N-11)

>  <Papp>
1.7 ×10⁻⁶ cm/s

$$$$
>  <compound>
CCCN1CC(=O)N(C)[C@@H](CC(C)C)C(=O)N[C@@H](COCC(C)(C)O)C(=O)N(C)[C@@H](Cc2ccccc2)C(=O)N(C)[C@@H](CC(C)C)C(=O)N[C@H](C(=O)N2CCCCC2)CC(=O)N[C@H](C(C)C)C(=O)N(C)[C@@H](Cc2ccccc2)C(=O)N[C@@H](CC(C)C)C(=O)N(C)[C@@H](CC(C)C)C(=O)N[C@@H]([C@@H](C)O)C1=O [AP10] ([dV][NMeF]L[NMeL]T[NPrGly][NMeL]S(CH2CMe2OH)[NMeF][NMeL]D-Piperidide; lactam N-11)

>  <Papp>
1.5 ×10⁻⁶ cm/s

$$$$
>  <compound>
CC[C@H](C)[C@@H]1NC(=O)[C@H](Cc2ccccc2)N(C)C(=O)CN(C)C(=O)C[C@@H](C(=O)N2CCCCC2)NC(=O)[C@H](C)N(C)C(=O)[C@H](CCCc2ccccc2)NC(=O)[C@H](CC(C)C)N(C)C(=O)[C@H](Cc2ccccc2)N(C)C(=O)CN(C)C(=O)[C@H]([C@@H](C)O)NC(=O)[C@H](CC(C)C)N(C)C1=O [pd190] ([Sar][NMeF]I[NMeL]T[Sar][NMeF][NMeL][hhPhe][NMeA]D-Piperidide; lactam N-11)

>  <Papp>
1.5 ×10⁻⁶ cm/s

$$$$
>  <compound>
CC[C@H](C)[C@@H]1NC(=O)[C@H](Cc2ccccc2)N(C)C(=O)CN(C)C(=O)C[C@@H](C(=O)N2CCCCC2)NC(=O)[C@H](CC(C)C)N(C)C(=O)[C@H](COCCC(C)(C)O)NC(=O)[C@H](CC(C)C)N(C)C(=O)[C@H](CCc2ccccc2)N(C)C(=O)CN(C)C(=O)[C@H]([C@@H](C)O)NC(=O)[C@H](CC(C)C)N(C)C1=O [AP58] ([Sar][NMeF]I[NMeL]T[Sar][NMehPhe][NMeL]S(Butyl(3-Me,3-OH))[NMeL]D-Piperidide; lactam N-11)

>  <Papp>
0.49 ×10⁻⁶ cm/s

$$$$

In: Can you look up the measured Papp of CC[C@H](C)[C@@H]1NC(=O)[C@H](CC(C)C)N(C)C(=O)[C@H](COC[C@@H](C)O)NC(=O)[C@H](Cc2ccccc2)N(C)C(=O)CN(C)C(=O)C[C@@H](C(=O)N2CCCCC2)NC(=O)[C@H](CC(C)C)N(C)C(=O)[C@H](COC(C)(C)C)NC(=O)[C@H](CC(C)C)N(C)C(=O)[C@H](Cc2ccccc2)N(C)C(=O)CN(C)C1=O [AP88] ([Sar][NMeF]S(Propyl(2R-OH))[NMeL]I[Sar][NMeF][NMeL]S(tBu)[NMeL]D-Piperidide; lactam N-11) for me?
Out: 3.3 ×10⁻⁶ cm/s
